Reported pIC50 values are given for each entry in this list.
system: indoleamine 2,3-dioxygenase (IDO) (Homo sapiens, UniProt P14902)
Construct: replaced with media containing IFNγ (#285-IF/CF, R&D Systems) at a final concentration of 25 ng/mL; endogenous in cells; host or cells: HeLa (ATCC CCL-2), IFN-gamma stimulated
Sequence (P14902 whole entry): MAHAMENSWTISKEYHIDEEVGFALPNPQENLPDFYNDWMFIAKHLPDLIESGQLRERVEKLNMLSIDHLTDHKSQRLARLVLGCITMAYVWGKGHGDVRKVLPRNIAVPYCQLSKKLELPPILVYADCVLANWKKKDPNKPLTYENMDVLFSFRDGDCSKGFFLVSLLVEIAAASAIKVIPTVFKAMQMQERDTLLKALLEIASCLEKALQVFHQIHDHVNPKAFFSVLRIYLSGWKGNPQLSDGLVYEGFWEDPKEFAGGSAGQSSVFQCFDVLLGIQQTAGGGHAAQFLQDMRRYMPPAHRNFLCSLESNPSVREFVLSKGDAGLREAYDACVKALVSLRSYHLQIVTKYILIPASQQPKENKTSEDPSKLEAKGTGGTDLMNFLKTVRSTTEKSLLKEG
experiment_summary: HeLa cell-based indoleamine 2,3-dioxygenase (IDO) assay, kynurenine production
experimental_conditions: HeLa cells, IFNγ 25 ng/mL, 48 hour incubation; read-out: IDO Hela IC50 class (A < 50, B < 250, C < 2000)
pIC50: −log10 of the molar value.

>>> measured_result("CC[C@H](CC(=O)O)c1ccc([C@@H](CC)N2CCOCC2)c(Nc2ccc(C#N)cc2)c1 (relative stereo) [Example 122]")
"> 7.30"
>>> measured_result("CCO[C@H](c1ccc([C@@H](COC)CC(=O)O)cc1Nc1ccc(Cl)cc1)C(F)(F)F (single isomer, unassigned) [Example 66]")
"> 7.30"

Exercise: Please report the recorded pIC50 for CCO[C@@H](c1ccc([C@H](COC)CC(=O)O)cc1Nc1cnc(C)nc1)C(F)(F)F (single isomer, unassigned) [Example 74] .
Key: 5.70 to 6.60

Exercise: Which pIC50 is reported for this molecule? CC[C@H](CC(=O)O)c1ccc([C@@H](CC)N2CCOCC2)c(Nc2ccc(Cl)cc2)c1 (relative stereo) [Example 123]
Key: > 7.30

Exercise: Given the entry CCOc1ncc(Nc2cc([C@@H](COC)CC(=O)O)ccc2[C@@H](CC)N2CCOCC2)cn1 (single isomer, unassigned) [Example 108] , report its measured pIC50.
Key: 5.70 to 6.60

Exercise: Using the record for CCO[C@H](c1ccc([C@H](COC)CC(=O)O)cc1Nc1ncc(F)cn1)C(F)(F)F (single isomer, unassigned) [Example 56] , report its pIC50.
Key: 5.70 to 6.60

====

Property: IC50; scope: individual compounds
system: indoleamine 2,3-dioxygenase (IDO) (Homo sapiens)
Construct: replaced with media containing IFNγ (#285-IF/CF, R&D Systems) at a final concentration of 25 ng/mL; endogenous in cells; host or cells: HeLa (ATCC CCL-2), IFN-gamma stimulated
experiment_summary: HeLa cell-based indoleamine 2,3-dioxygenase (IDO) assay, kynurenine production
experimental_conditions: HeLa cells, IFNγ 25 ng/mL, 48 hour incubation; read-out: IDO Hela IC50
Respond numerically; units are nM and should not be typed.

For orientation, consider the following solved cases.
>>> measured_result("CCO[C@@H](c1ccc([C@@H](CC)CC(=O)O)cc1Nc1cnc(OC)nc1)C(F)(F)F (single isomer, unassigned)")
10
>>> measured_result("CCO[C@@H](c1ccc(F)cc1)c1cc(Nc2ccc3nc(C)sc3c2)cc([C@H](CC)CC(=O)O)c1 (single isomer, unassigned)")
20
>>> measured_result("CCO[C@H](c1ccc([C@@H](CC)CC(=O)O)cc1Nc1cnc(OC)cn1)C(F)(F)F (single isomer, unassigned)")
10
>>> measured_result("CCO[C@@H](c1ccc([C@@H](COC)CC(=O)O)cc1Nc1cnc(OC)nc1)C(F)(F)F (single isomer, unassigned)")
700
>>> measured_result("CCO[C@@H](c1ccc([C@H](COC)CC(=O)O)cc1Nc1ccc(C#N)c(F)c1)C(F)(F)F (relative stereo)")
30

Exercise: Could you share what IC50 was measured for CCO[C@H](c1ccc([C@@H](COC)CC(=O)O)cc1NC(=O)Nc1ccc(C)cc1)C(F)(F)F (single isomer, unassigned) , tested on indoleamine 2,3-dioxygenase (IDO) (Homo sapiens)?
Key: 910

Exercise: What measured IC50 is associated with CCO[C@H](c1ccc([C@H](COC)CC(=O)O)cc1Nc1ccc(C#N)cc1)C(F)(F)F (relative stereo) on indoleamine 2,3-dioxygenase (IDO) (Homo sapiens)?
Key: 10

====

system: indoleamine 2,3-dioxygenase (IDO) (Homo sapiens, UniProt P14902)
Construct: replaced with media containing IFNγ (#285-IF/CF, R&D Systems) at a final concentration of 25 ng/mL; endogenous in cells; host or cells: HeLa (ATCC CCL-2), IFN-gamma stimulated
experiment_summary: HeLa cell-based indoleamine 2,3-dioxygenase (IDO) assay, kynurenine production
experimental_conditions: HeLa cells, IFNγ 25 ng/mL, 48 hour incubation; read-out: IDO Hela IC50
pIC50: −log10 of the molar value.
Decision: pIC50 compared against 7; not below it gives fulfilled, below it gives not fulfilled.

Known results for compounds:
>>> assigned_label("CCO[C@@H](c1ccc([C@H](CC)CC(=O)O)cc1Nc1cnc(COC)nc1)C(F)(F)F (single isomer, unassigned) [Example 38]")
"not fulfilled"
>>> assigned_label("CCO[C@@H](c1ccc([C@H](COC)CC(=O)O)cc1Nc1ccc(C#N)cc1)C(F)(F)F (relative stereo) [Example 73]")
"fulfilled"
>>> assigned_label("CCO[C@H](c1ccc([C@@H](COC)CC(=O)O)cc1Nc1cnc(OC)nc1)C(F)(F)F (single isomer, unassigned) [Example 62]")
"fulfilled"
>>> assigned_label("CCOc1ncc(Nc2cc([C@@H](CC)CC(=O)O)ccc2[C@H](OC)C(F)(F)F)cn1 (single isomer, unassigned) [Example 99]")
"fulfilled"

Next up:
Exercise: Exam item: decide whether the reported pIC50 for CCOc1ncc(Nc2cc([C@H](CC)CC(=O)O)ccc2[C@@H](CC)C2CCOCC2)cn1 (single isomer, unassigned) [Example 125-1] is at least 7.
Key: fulfilled

====

system: indoleamine 2,3-dioxygenase (IDO) (Homo sapiens)
Construct: replaced with media containing IFNγ (#285-IF/CF, R&D Systems) at a final concentration of 25 ng/mL; endogenous in cells; host or cells: HeLa (ATCC CCL-2), IFN-gamma stimulated
experiment_summary: HeLa cell-based indoleamine 2,3-dioxygenase (IDO) assay, kynurenine production
experimental_conditions: HeLa cells, IFNγ 25 ng/mL, 48 hour incubation; read-out: IDO Hela IC50
metric_name: pIC50
On this scale, pIC50 is minus log10 of a concentration expressed in M (mol/L).

Solved cases (4 shown):
>>> measured_result("CCO[C@H](c1ccc([C@@H](CC)CC(=O)O)cc1Nc1cnc(CC)nc1)C(F)(F)F (single isomer, unassigned)")
7.70
>>> measured_result("CC[C@H](CC(=O)O)c1ccc([C@@H](OC)C(F)(F)F)c(Nc2cnc(C(F)(F)F)nc2)c1 (single isomer, unassigned)")
8.00
>>> measured_result("CC[C@H](CC(=O)O)c1ccc([C@@H](OC)C(F)(F)F)c(Nc2cnc(C)nc2)c1 (relative stereo)")
6.82
>>> measured_result("CCO[C@H](c1ccc([C@H](CC)CC(=O)O)cc1NC(=O)Nc1ccc(C)cc1)C(F)(F)F (single isomer, unassigned)")
7.22

Okay, next one:
Exercise: Which pIC50 value is on record for CCO[C@@H](c1ccc([C@@H](CC)CC(=O)O)cc1Nc1ccc(F)cc1)C(F)(F)F (single isomer, unassigned) ?
Key: 7.70

====

system: indoleamine 2,3-dioxygenase (IDO) (Homo sapiens, UniProt P14902)
Construct: replaced with media containing IFNγ (#285-IF/CF, R&D Systems) at a final concentration of 25 ng/mL; endogenous in cells; host or cells: HeLa (ATCC CCL-2), IFN-gamma stimulated
experiment_summary: HeLa cell-based indoleamine 2,3-dioxygenase (IDO) assay, kynurenine production
experimental_conditions: HeLa cells, IFNγ 25 ng/mL, 48 hour incubation; read-out: IDO Hela IC50 class (A < 50, B < 250, C < 2000)
pIC50: −log10 of the molar value.
metric_name: pIC50

// worked examples, pIC50 included
>>> measured_result("CCc1ncc(Nc2cc([C@H](CC)CC(=O)O)ccc2[C@@H](CC)C2CCOCC2)cn1 (single isomer, unassigned) [Example 126-1]")
"> 7.30"
>>> measured_result("CC[C@H](c1ccc([C@@H](COC)CC(=O)O)cc1Nc1ccc(F)cc1)N1CCOCC1 (single isomer, unassigned) [Example 111]")
"5.70 to 6.60"
>>> measured_result("CCO[C@@H](c1ccc([C@H](CC)CC(=O)O)cc1Nc1ccc(Cl)cc1)C(F)(F)F (stereo in doubt) [Example 34]")
"> 7.30"
>>> measured_result("CC[C@@H](c1ccc([C@@H](COC)CC(=O)O)cc1Nc1ccc(COC)nc1)N1CCOCC1 (single isomer, unassigned) [Example 104]")
"5.70 to 6.60"
>>> measured_result("CC[C@@H](CC(=O)O)c1ccc([C@@H](CC)N2CCOCC2)c(Nc2ccc(COC)nc2)c1 (relative stereo) [Example 131]")
"5.70 to 6.60"

Consider the additional compound presented here.
Exercise: Recorded pIC50 for CC[C@H](CC(=O)O)c1ccc([C@H](OC)C(F)(F)F)c(Nc2ccc(C#N)cc2)c1 (single isomer, unassigned) [Example 93] , please?
Key: > 7.30
